# Test system: sheep RBC
# PROCEDURE_DETAILS: Hemolytic activity, red blood cell leakage assay
# STUDY_CONDITIONS: 1 h, 37°C
molecules and their reported HA200 (hemolytic activity at 200 μM)
Report the figure in % without appending any unit label.

Some molecules with known HA200 (hemolytic activity at 200 μM) results, for comparison:
• CCCCCCCCCCCCCCCCCCOP(=O)(OCCCCCCCCCCCC)OC1CC[N+](C)(C)CC1.[Cl-] (stereo not drawn) = 8.1
• CCCCCCCCCCCCCCCCOP(=O)([O-])OCC[N+](C)(C)C [Miltefosine, reference compound] = 90.8
• CCCCCCCCCCCCCCCCOP(=O)(OCCCCCCCCCCCC)OCC[N+](C)(C)C (stereo not drawn) = 13.1
• CCCCCCCCCCCCCCCCCCOP(=O)(OCOC(=O)CCCCCCCCCCC)OC1CC[N+](C)(C)CC1.[Cl-] (stereo not drawn) = 7.1
• CCCCCCCCCCCCCCCCOP(=O)(OCC[N+](C)(C)C)OCOC(=O)CCCCCCCCCCC.[Cl-] (stereo not drawn) = 18.0

Note: attention shifts to another entry.
What HA200 (hemolytic activity at 200 μM) appears in the records for this molecule with sheep RBC? CCCCCCCCCCCCCCCCCCOP(=O)([O-])OC1CC[N+](C)(C)CC1 [Perifosine, reference compound]
85.1
